Biological target: human neurokinin 2 (NK2) receptor (Homo sapiens)
Construct: expressed in transfected cells; host or cells: Chinese hamster ovary (CHO) cells, membranes
Sequence (P21452 whole entry): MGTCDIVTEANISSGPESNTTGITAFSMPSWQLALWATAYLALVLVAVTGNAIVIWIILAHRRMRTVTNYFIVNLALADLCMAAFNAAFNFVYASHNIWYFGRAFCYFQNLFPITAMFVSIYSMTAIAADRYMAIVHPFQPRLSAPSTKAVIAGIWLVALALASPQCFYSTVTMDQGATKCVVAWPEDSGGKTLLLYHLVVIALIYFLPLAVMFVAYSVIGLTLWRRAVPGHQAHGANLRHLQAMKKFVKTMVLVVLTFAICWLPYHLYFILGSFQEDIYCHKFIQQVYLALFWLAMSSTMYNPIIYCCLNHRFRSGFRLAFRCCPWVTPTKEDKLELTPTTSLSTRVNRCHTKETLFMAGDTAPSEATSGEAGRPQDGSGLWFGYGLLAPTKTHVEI
Assay: Neurokinin receptor binding assay, NK2 ([3H]-Neurokinin A)
Conditions: CHO membranes, human NK-2 receptor, [3H]-Neurokinin A 1.0 nM; Cheng-Prusoff; read-out: Ki (NK2)
Procedure: Chinese Hamster ovary (CHO) cells transfected with the coding regions for the human neurokinin 1 (NK1) of the human neurokinin 2 (NK2) receptors are grown in Dulbecco's minimal essential medium supplemented with 10% fetal calf serum, 0.1 mM non-essential amino acids, 2 mM glutamine, 100 units/ml of penicillin and streptomycin, and 0.8 mg of G418/ml at 37° C. in a humidified atmosphere containing 5% CO2. […]
pKi: −log10 of the molar value.
VALUE_KIND: pKi

(P) COc1cc(C(=O)N(C)CC(CCN[C@@H](Cc2c[nH]c3ccccc23)C(=O)O)c2ccc(Cl)c(Cl)c2)cc(OC)c1OC (some centres unmarked)
(Q) COc1cc(C(=O)N(C)CC(CCN(C)CCCc2c[nH]c3ccccc23)c2ccc(Cl)c(Cl)c2)cc(OC)c1OC (centres unmarked)
Given the listed items, does P or Q have the lesser reported pKi? Answer format: the label of the selected item.
Q
